- Test system: Colon 26
- Experimental Details: In vitro cytotoxicity against colon 26 adenocarcinoma cell line was evaluated.
- Type: functional, cell-based
- Assay Conditions: Mus musculus
Reported pIC50 values follow for various compounds
When answering, recall that pIC50 equals minus log10 of the concentration in mol/L, and write that number alone.

COc1ccc(-c2sc(N)nc2-c2cc(OC)c(OC)c(OC)c2)cc1N has a reported pIC50 of 7.24

COc1ccc(-c2nncn2-c2cc(OC)c(OC)c(OC)c2)cc1N has a reported pIC50 of 6.08

COc1ccc(-c2sc(C)nc2-c2cc(OC)c(OC)c(OC)c2)cc1N has a reported pIC50 of 5.69

COc1ccc(-c2c[nH]nc2-c2cc(OC)c(OC)c(OC)c2)cc1N has a reported pIC50 of 8.08

----------
Reported IC50 values follow for various compounds
- Target Of Assay: Tubulin (Bos taurus, UniProt Q6B856+Q862L2+Q862F3)
- Experimental Details: Tubulin polymerization inhibitory activity using bovine brain tubulin
- Format: functional
Unit µM implied. Number only.

[[record]]
smiles = "COc1ccc(-c2nnnn2-c2cc(OC)c(OC)c(OC)c2)cc1N"
obs_value = 2


Okay, now this compound:
COc1ccc(-c2nncn2-c2cc(OC)c(OC)c(OC)c2)cc1N has a reported IC50 of 4

----------
- Target Of Assay: Tubulin (Bos taurus, UniProt Q6B856+Q862L2+Q862F3)
- Experimental Details: Tubulin polymerization inhibitory activity using bovine brain tubulin
- Assay type: functional
Measurement Label: IC50 (nM)
Unit nM implied. Number only.

Known IC50 results, listed for orientation:
[[record]]
smiles = "COc1ccc(-c2sc(N)nc2-c2cc(OC)c(OC)c(OC)c2)cc1N"
measurement_label = "IC50"
obs_value = 1000

[[record]]
smiles = "COc1ccc(-c2sc(NN)nc2-c2cc(OC)c(OC)c(OC)c2)cc1N"
measurement_label = "IC50"
obs_value = 3000

[[record]]
smiles = "COc1ccc(-c2scnc2-c2cc(OC)c(OC)c(OC)c2)cc1N"
measurement_label = "IC50"
obs_value = 3000

[[record]]
smiles = "COc1ccc(-c2sc(C)nc2-c2cc(OC)c(OC)c(OC)c2)cc1N"
measurement_label = "IC50"
obs_value = 2000


Okay, now this molecule:
COc1ccc(-c2c[nH]nc2-c2cc(OC)c(OC)c(OC)c2)cc1N has a reported IC50 of 3000

----------
Reported IC50 values follow for various molecules
- Test system: Colon 26
- Experimental Details: In vitro cytotoxicity against colon 26 adenocarcinoma cell line was evaluated.
- Type: functional, cell-based
- Assay Conditions: Mus musculus

[[record]]
smiles = "COc1ccc(-c2nnc(C)n2-c2cc(OC)c(OC)c(OC)c2)cc1N"
obs_value = "> 3000 nM"


COc1ccc(-c2nnnn2-c2cc(OC)c(OC)c(OC)c2)cc1N has a reported IC50 of 7.2 nM

COc1ccc(-c2sc(NN)nc2-c2cc(OC)c(OC)c(OC)c2)cc1N has a reported IC50 of 21.1 nM

COc1ccc(-c2c([Si](C)(C)C)n[nH]c2-c2cc(OC)c(OC)c(OC)c2)cc1N has a reported IC50 of > 3000 nM

COc1ccc(/C=C\c2cc(OC)c(OC)c(OC)c2)cc1N.Cl has a reported IC50 of 2.8 nM

COc1ccc(-c2nnc(N)n2-c2cc(OC)c(OC)c(OC)c2)cc1N has a reported IC50 of > 3000 nM

COc1ccc(-c2nnc(O)n2-c2cc(OC)c(OC)c(OC)c2)cc1N has a reported IC50 of > 3000 nM

COc1ccc(-c2scnc2-c2cc(OC)c(OC)c(OC)c2)cc1N has a reported IC50 of 14.5 nM

Measured values drawn from ChEMBL document CHEMBL1130664 for this set.
